target: human C-terminal DNMT3A (a.a. 623-908) (Homo sapiens); construct: The human C-terminal DNMT3A (a.a. 623-908); made in house; assay: DNMT3A assay (restriction-based fluorescence assay); format: biochemical; conditions: compound at 3.2 μM
assay endpoint: inhibition at 3.2 µM (%)

given smiles	unit abbreviation	recorded number
Clc1nc(NCCCc2ccccc2)c2ccc(OCC3CCN(CCNc4ccncc4)CC3)cc2n1	%	32
Oc1ccc2c(NCCCc3ccccc3)ncnc2c1CN1CCN(CCNc2ccnc3ccccc23)CC1	%	18
c1ccc(CN2CCC(Nc3nc(N4CCN(c5ccccc5)CC4)nc4cc(OCC5CCN(CCNc6ccnc7ccccc67)CC5)ccc34)CC2)cc1	%	95
COc1cc2c(NC3CCN(Cc4ccccc4)CC3)nc(N3CCN(c4ccccc4)CC3)nc2cc1OCC1CCN(CCNc2ccnc3ccccc23)CC1	%	100

###

target: human C-terminal DNMT3A (a.a. 623-908) (Homo sapiens, UniProt Q9Y6K1); construct: The human C-terminal DNMT3A (a.a. 623-908); assay: DNMT3A assay (restriction-based fluorescence assay)
Sequence (Q9Y6K1 627-912): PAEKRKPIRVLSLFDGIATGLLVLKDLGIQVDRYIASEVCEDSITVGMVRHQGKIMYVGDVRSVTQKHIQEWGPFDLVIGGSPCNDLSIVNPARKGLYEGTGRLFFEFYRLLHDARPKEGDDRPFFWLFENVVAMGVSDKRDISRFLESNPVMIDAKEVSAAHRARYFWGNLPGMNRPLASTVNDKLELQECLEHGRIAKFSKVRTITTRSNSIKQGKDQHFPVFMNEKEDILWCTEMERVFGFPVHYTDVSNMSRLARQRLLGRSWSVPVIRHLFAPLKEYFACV
assay endpoint: EC50 (nM)

given smiles	assay endpoint	unit abbreviation	recorded number
COc1cc2c(NC3CCN(Cc4ccccc4)CC3)nc(N3CCN(c4ccccc4)CC3)nc2cc1OCC1CCN(CCNc2ccnc3ccccc23)CC1	EC50	nM	600

###

biological target: His-DNMT1 (182 kDa, human) (Homo sapiens, UniProt P26358); construct: His; made in house; assay: DNMT1 assay (tritiated SAM Flashplate methylation assay); type: biochemical; conditions: compound at 32 μM
Sequence (P26358 whole entry): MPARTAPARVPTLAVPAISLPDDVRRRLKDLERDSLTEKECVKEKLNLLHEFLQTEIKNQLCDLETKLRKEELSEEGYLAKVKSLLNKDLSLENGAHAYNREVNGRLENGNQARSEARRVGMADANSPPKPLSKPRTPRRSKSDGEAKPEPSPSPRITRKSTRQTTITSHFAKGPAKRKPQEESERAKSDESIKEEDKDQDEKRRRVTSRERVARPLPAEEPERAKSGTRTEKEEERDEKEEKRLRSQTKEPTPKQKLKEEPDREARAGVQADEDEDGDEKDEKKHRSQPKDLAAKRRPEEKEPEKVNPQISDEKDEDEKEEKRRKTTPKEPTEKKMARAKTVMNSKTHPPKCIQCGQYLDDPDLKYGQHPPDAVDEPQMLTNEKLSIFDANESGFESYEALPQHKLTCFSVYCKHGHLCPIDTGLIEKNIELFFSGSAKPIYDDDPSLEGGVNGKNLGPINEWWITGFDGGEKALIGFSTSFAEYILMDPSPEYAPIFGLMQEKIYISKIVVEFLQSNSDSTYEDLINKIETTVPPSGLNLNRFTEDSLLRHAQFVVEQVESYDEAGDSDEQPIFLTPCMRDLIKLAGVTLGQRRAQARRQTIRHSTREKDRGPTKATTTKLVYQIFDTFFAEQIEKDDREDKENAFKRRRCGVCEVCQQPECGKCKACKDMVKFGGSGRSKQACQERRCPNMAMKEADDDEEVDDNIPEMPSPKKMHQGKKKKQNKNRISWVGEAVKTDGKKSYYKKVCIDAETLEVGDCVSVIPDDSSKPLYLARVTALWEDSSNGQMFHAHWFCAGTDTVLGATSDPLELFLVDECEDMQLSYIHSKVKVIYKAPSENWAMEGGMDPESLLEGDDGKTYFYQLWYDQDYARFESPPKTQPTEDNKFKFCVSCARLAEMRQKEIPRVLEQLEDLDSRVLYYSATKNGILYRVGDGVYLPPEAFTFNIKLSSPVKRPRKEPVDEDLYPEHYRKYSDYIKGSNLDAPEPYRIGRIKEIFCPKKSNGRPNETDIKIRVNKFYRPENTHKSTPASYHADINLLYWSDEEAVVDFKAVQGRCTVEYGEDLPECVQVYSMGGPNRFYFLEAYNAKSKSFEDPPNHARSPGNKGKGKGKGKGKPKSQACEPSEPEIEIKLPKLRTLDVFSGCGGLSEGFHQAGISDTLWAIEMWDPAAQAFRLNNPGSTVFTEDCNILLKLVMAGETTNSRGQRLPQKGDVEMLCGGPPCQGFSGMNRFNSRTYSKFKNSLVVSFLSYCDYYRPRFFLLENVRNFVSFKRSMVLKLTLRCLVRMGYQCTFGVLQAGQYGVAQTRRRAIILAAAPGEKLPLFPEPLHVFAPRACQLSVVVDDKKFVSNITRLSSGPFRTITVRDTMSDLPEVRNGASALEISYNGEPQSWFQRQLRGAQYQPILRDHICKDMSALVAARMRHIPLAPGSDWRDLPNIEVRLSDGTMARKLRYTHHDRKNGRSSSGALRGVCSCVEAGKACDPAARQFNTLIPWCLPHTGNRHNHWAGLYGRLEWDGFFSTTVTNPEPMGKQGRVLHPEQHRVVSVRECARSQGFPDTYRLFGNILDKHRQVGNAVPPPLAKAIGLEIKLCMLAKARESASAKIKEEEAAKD
Measured inhibition at 32 µM accompanies every entry in the list below.
assay endpoint: inhibition at 32 µM (%)

given smiles	study system	recorded number
Clc1nc(NCCCc2ccccc2)c2ccc(OCC3CCN(CCNc4ccnc5ccccc45)CC3)cc2n1	His-DNMT1 (182 kDa, human) (Homo sapiens, UniProt P26358)	93
c1ccc(CN2CCC(Nc3nc(N4CCN(c5ccccc5)CC4)nc4cc(OCC5CCN(CCNc6ccnc7ccccc67)CC5)ccc34)CC2)cc1	His-DNMT1 (182 kDa, human) (Homo sapiens, UniProt P26358)	100
CCN(CC)CCNc1nc(NCCCc2ccccc2)c2ccc(OCC3CCN(CCNc4ccnc5ccccc45)CC3)cc2n1	His-DNMT1 (182 kDa, human) (Homo sapiens, UniProt P26358)	98
CN1CCN(c2nc(NCCCc3ccccc3)c3ccc(OCC4CCN(CCNc5ccnc6ccccc56)CC4)cc3n2)CC1	His-DNMT1 (182 kDa, human) (Homo sapiens, UniProt P26358)	94
COc1cc2c(NC3CCN(Cc4ccccc4)CC3)nc(N3CCN(c4ccccc4)CC3)nc2cc1OCC1CCN(CCNc2ccnc3ccccc23)CC1	His-DNMT1 (182 kDa, human) (Homo sapiens, UniProt P26358)	100
Oc1ccc2c(NCCCc3ccccc3)ncnc2c1CN1CCN(CCNc2ccnc3ccccc23)CC1	His-DNMT1 (182 kDa, human) (Homo sapiens, UniProt P26358)	0
COc1cc2c(NCCNc3cccc4ccccc34)nc(N3CCN(c4ccccc4)CC3)nc2cc1OCC1CCN(CCNc2ccnc3ccccc23)CC1	His-DNMT1 (182 kDa, human) (Homo sapiens, UniProt P26358)	93

###

biological target: His-DNMT1 (182 kDa, human) (Homo sapiens); construct: His; made in house; assay: DNMT1 assay (tritiated SAM Flashplate methylation assay); format: biochemical; settings: compound at 10 μM
Measured inhibition at 10 µM accompanies every entry in the list below.

given smiles	inhibition at 10 µM, %
COc1cc2c(NC3CCN(Cc4ccccc4)CC3)nc(N3CCN(c4ccccc4)CC3)nc2cc1OCC1CCN(CCNc2ccnc3ccccc23)CC1	59
Oc1ccc2c(NCCCc3ccccc3)ncnc2c1CN1CCN(CCNc2ccnc3ccccc23)CC1	0
CN1CCN(c2nc(NCCCc3ccccc3)c3ccc(OCC4CCN(CCNc5ccnc6ccccc56)CC4)cc3n2)CC1	0
COc1cc2c(NCCNc3cccc4ccccc34)nc(N3CCN(c4ccccc4)CC3)nc2cc1OCC1CCN(CCNc2ccnc3ccccc23)CC1	45
CCN(CC)CCNc1nc(NCCCc2ccccc2)c2ccc(OCC3CCN(CCNc4ccnc5ccccc45)CC3)cc2n1	35
Clc1nc(NCCCc2ccccc2)c2ccc(OCC3CCN(CCNc4ccnc5ccccc45)CC3)cc2n1	5
c1ccc(CN2CCC(Nc3nc(N4CCN(c5ccccc5)CC4)nc4cc(OCC5CCN(CCNc6ccnc7ccccc67)CC5)ccc34)CC2)cc1	54

###

target: human C-terminal DNMT3A (a.a. 623-908) (Homo sapiens, UniProt Q9Y6K1); construct: The human C-terminal DNMT3A (a.a. 623-908); made in house; assay: DNMT3A assay (restriction-based fluorescence assay); assay type: biochemical; conditions: compound at 1 μM
Outcome: YES for inhibition at 1 µM of at least 50%; NO for anything lower.

given smiles	class name
Clc1nc(NCCCc2ccccc2)c2ccc(OCC3CCN(CCNc4ccncc4)CC3)cc2n1	NO
c1ccc(CN2CCC(Nc3nc(N4CCN(c5ccccc5)CC4)nc4cc(OCC5CCN(CCNc6ccnc7ccccc67)CC5)ccc34)CC2)cc1	YES
Clc1nc(NCCCc2ccccc2)c2ccc(OCC3CCN(CCNc4ccnc5ccccc45)CC3)cc2n1	NO
CCN(CC)CCNc1nc(NCCCc2ccccc2)c2ccc(OCC3CCN(CCNc4ccnc5ccccc45)CC3)cc2n1	YES
Oc1ccc2c(NCCCc3ccccc3)ncnc2c1CN1CCN(CCNc2ccnc3ccccc23)CC1	NO
COc1cc2c(NCCNc3cccc4ccccc34)nc(N3CCN(c4ccccc4)CC3)nc2cc1OCC1CCN(CCNc2ccnc3ccccc23)CC1	YES
CN1CCN(c2nc(NCCCc3ccccc3)c3ccc(OCC4CCN(CCNc5ccnc6ccccc56)CC4)cc3n2)CC1	NO
COc1cc2c(NC3CCN(Cc4ccccc4)CC3)nc(N3CCN(c4ccccc4)CC3)nc2cc1OCC1CCN(CCNc2ccnc3ccccc23)CC1	YES

###

target: human C-terminal DNMT3A (a.a. 623-908) (Homo sapiens, UniProt Q9Y6K1); construct: The human C-terminal DNMT3A (a.a. 623-908); made in house; assay: DNMT3A assay (restriction-based fluorescence assay); format: biochemical; conditions: compound at 3.2 μM
Measured inhibition at 3.2 µM accompanies every entry in the list below.

given smiles	inhibition at 3.2 µM / %
CN1CCN(c2nc(NCCCc3ccccc3)c3ccc(OCC4CCN(CCNc5ccnc6ccccc56)CC4)cc3n2)CC1	43
Clc1nc(NCCCc2ccccc2)c2ccc(OCC3CCN(CCNc4ccnc5ccccc45)CC3)cc2n1	73
COc1cc2c(NCCNc3cccc4ccccc34)nc(N3CCN(c4ccccc4)CC3)nc2cc1OCC1CCN(CCNc2ccnc3ccccc23)CC1	84
CCN(CC)CCNc1nc(NCCCc2ccccc2)c2ccc(OCC3CCN(CCNc4ccnc5ccccc45)CC3)cc2n1	81

###

target: His-DNMT1 (182 kDa, human) (Homo sapiens); construct: His; experiment: DNMT1 assay (tritiated SAM Flashplate methylation assay)
pEC50: −log10 of the molar value.
assay endpoint: pEC50

given smiles	recorded number
Clc1nc(NCCCc2ccccc2)c2ccc(OCC3CCN(CCNc4ccnc5ccccc45)CC3)cc2n1	4.72
c1ccc(CN2CCC(Nc3nc(N4CCN(c5ccccc5)CC4)nc4cc(OCC5CCN(CCNc6ccnc7ccccc67)CC5)ccc34)CC2)cc1	5.00
CN1CCN(c2nc(NCCCc3ccccc3)c3ccc(OCC4CCN(CCNc5ccnc6ccccc56)CC4)cc3n2)CC1	4.64
COc1cc2c(NC3CCN(Cc4ccccc4)CC3)nc(N3CCN(c4ccccc4)CC3)nc2cc1OCC1CCN(CCNc2ccnc3ccccc23)CC1	5.00
COc1cc2c(NCCNc3cccc4ccccc34)nc(N3CCN(c4ccccc4)CC3)nc2cc1OCC1CCN(CCNc2ccnc3ccccc23)CC1	4.93
CCN(CC)CCNc1nc(NCCCc2ccccc2)c2ccc(OCC3CCN(CCNc4ccnc5ccccc45)CC3)cc2n1	4.89
